Target: TgTR (TgPKS2 thioester reductase domain) (Toxoplasma gondii, UniProt Z9O203Q0F3)
Construct: isolated C-terminal thioester reductase (TR) domain of TgPKS2; E. coli codon optimized, expressed in E. coli BL21(DE3) with GroES/EL-TF chaperones
Assay: isothermal titration calorimetry
Format: binding
Details: 25 mM Tris-HCl pH 7.6, 25 mM NaCl; excess NADH (1 mM); N fixed at 1
# Kd annotations

[
  {
    "molecule": "CCCCCCCC(=O)SCCNC(=O)CCNC(=O)[C@H](O)C(C)(C)COP(=O)(O)OP(=O)(O)OC[C@H]1O[C@@H](n2cnc3c(N)ncnc32)[C@H](O)[C@@H]1OP(=O)(O)O",
    "Kd": "89.6 µM"
  },
  {
    "molecule": "CCCCCCCC=O",
    "Kd": "146 µM"
  }
]

----------
Target: TgTR (TgPKS2 thioester reductase domain) (Toxoplasma gondii, UniProt Z9O203Q0F3)
Construct: isolated C-terminal thioester reductase (TR) domain of TgPKS2; E. coli codon optimized, expressed in E. coli BL21(DE3) with GroES/EL-TF chaperones
Test: isothermal titration calorimetry
Format: binding
Conditions: 25 mM Tris-HCl pH 7.6, 25 mM NaCl; no other ligand; N fixed at 1

[
  {
    "molecule": "NC(=O)C1=CN([C@@H]2O[C@H](COP(=O)(O)OP(=O)(O)OC[C@H]3O[C@@H](n4cnc5c(N)ncnc54)[C@H](O)[C@@H]3O)[C@@H](O)[C@H]2O)C=CC1",
    "unitOfMeasurement": "µM",
    "Kd": 7.64
  }
]
